Assay: Rat pharmacokinetics
Assay type: in vivo, rats
Settings: male, Sprague-Dawley, plasma, po, 30 mg/kg, PO 30 mg/kg free base, read-out: Cmax
Endpoint: Cmax (ng/mL)
Express it in ng/mL; write the number only.

Per the record, CC(F)[C@H]1CNC[C@@H](O)[C@@H]1O (single isomer, unassigned) has Cmax of 6920

###

Assay: Rat pharmacokinetics
Format: in vivo, rats
Conditions: male, Sprague-Dawley, plasma, read-out: half-life
Endpoint: half-life

Per the record, CC(F)[C@H]1CNC[C@@H](O)[C@@H]1O (single isomer, unassigned) has half-life of 1 to 4 h

###

Assay: Rat pharmacokinetics
Assay type: in vivo, rats
Conditions: male, Sprague-Dawley, plasma, iv, 3 mg/kg, IV 3 mg/kg free base, read-out: Cmax
Endpoint: Cmax
Quick note: number first, unit second.

Per the record, CC(F)[C@H]1CNC[C@@H](O)[C@@H]1O (single isomer, unassigned) has Cmax of 2330 ng/mL

The values you see were collected from patent US10035766B2.
